EXPERIMENT DESCRIPTION: PK of five RC components in pituitrin-induced myocardial ischemia (MDG) rats after oral RC extract, HPLC-QQQ-MS/MS, DAS
Assay type: in vivo, SD rats
TEST SETTINGS: SD, rat, in vivo, po, 2 g/kg

- MOLECULE: "O=C(O)c1cc(O)c(O)c(O)c1 [Gallic Acid, gallic acid]"
  Vd/F: "134 L/kg"

----------
EXPERIMENT DESCRIPTION: PK of five RC components in pituitrin-induced myocardial ischemia (MDG) rats after oral RC extract, HPLC-QQQ-MS/MS, DAS
Assay type: in vivo, SD rats
TEST SETTINGS: SD, rat, in vivo, po, 2 g/kg, Tmax (approximate)
PROPERTY MEASURED: Tmax

- CHEMICAL STRING: "O=C(O)c1cc(O)c(O)c(O)c1"
  EXPERIMENTAL VALUE: "~1 h"
